# Test system: MALME-3M melanoma
# assay: NCI tumour cell line growth inhibition, 48 h
quantity name: GI50

Lab note: O=C1/C(=C/c2ccccc2O)N=C(c2ccccc2)N1c1cc(C(F)(F)F)ccc1Cl gave GI50 of 46.7 µM

Lab note: COc1ccc(COc2cc3oc(=O)c4cc(C(C)O)ccc4c3cc2OC)cc1 (configuration not stated) gave GI50 of 10.2 µM

Lab note: c1ccc2c(CNCCN3CCNCC3)c3ccccc3c(CNCCN3CCNCC3)c2c1 gave GI50 of 11.8 µM

Lab note: O=C1/C(=C/c2ccccc2[N+](=O)[O-])COc2ccc(O)cc21 gave GI50 of 1.65 µM

Lab note: NCc1ccc(-c2nc(-c3ccc(Cl)c(O)c3)c(-c3ccncc3)[nH]2)cc1 gave GI50 of 2.72 µM

Lab note: Nc1nc(-c2ccc(Cl)cc2)nc2c1sc(=S)n2-c1ccccc1 gave GI50 of 2.59 µM

Lab note: Fc1ccc2nc(-c3nc(-c4ccccc4)n4ccccc34)[nH]c2c1 gave GI50 of 2.06 µM

Lab note: C[C@@H](NC(=O)c1ccc(F)cc1)c1ccc2c(c1)CCN2C(=O)C1CCOCC1 gave GI50 of > 100 µM

Lab note: COCCOCCOCCOCCOC(=O)OC[n+]1ccc(NC(=NCCCCCCOc2ccc(Cl)cc2)NC#N)cc1 gave GI50 of 12.1 µM

Lab note: CC1CCC2C(CN(CC3=C(C(F)(F)F)OC4OC5(C)CCC6C(C)CCC3C46OO5)CC3=C(C(F)(F)F)OC4OC5(C)CCC6C(C)CCC3C46OO5)=C(C(F)(F)F)OC3OC4(C)CCC1C32OO4 (configuration not stated) gave GI50 of 6.73 µM

Lab note: CCN(Cc1ccc(F)cc1)c1ccc(CO)c(C(F)(F)F)c1 gave GI50 of 15.5 µM

Lab note: O=S(=O)(NCCCNc1cc(-c2cn(-c3ccccc3)nc2-c2cccc(O)c2)ccn1)c1ccc(F)cc1 gave GI50 of 2.56 µM

Lab note: C[C@H]1CN(C2COC2)CCN1c1ccc(Nc2cc(-c3ccnc(N4CCn5c(cc6c5CC(C)(C)C6)C4=O)c3CO)cn(C)c2=O)nc1 gave GI50 of > 100 µM

Lab note: CC(C)N(Cc1ccc(F)cc1)c1ccc(CO)c(Cl)c1 gave GI50 of 14.4 µM

Lab note: C=C1C(=O)O[C@H]2[C@H]1CC/C(COC(=O)NCc1c[nH]c3ccc(F)cc13)=C\CC[C@@]1(C)O[C@@H]21 gave GI50 of 1.66 µM

Lab note: O=S(=O)(O)c1ccc2cc3nn(-c4ccc(/C=C/c5ccc(-n6nc7cc8ccc(S(=O)(=O)O)cc8cc7n6)cc5S(=O)(=O)O)c(S(=O)(=O)O)c4)nc3cc2c1 gave GI50 of > 100 µM

Lab note: O=C1C(Nc2cccc(O)c2)=C(Sc2ccccc2)C(=O)N1Cc1ccccc1 gave GI50 of 1.74 µM

* * *

# Test system: SR leukemia
# assay: NCI tumour cell line growth inhibition, 48 h
quantity name: TGI

Lab note: CN(C)CCCn1c2c(c3cc4c(cc3c1=O)OCO4)C(=O)c1ccccc1-2 gave TGI of 0.0486 µM

Lab note: COC1=C2CC(C)CC(OC)C(OC(=O)CCCN)C(C)/C=C(\C)C(OC(N)=O)C(OC)/C=C\C=C(/C)C(=O)NC(=CC1=O)C2=O (stereo unspecified) gave TGI of 21.5 µM

Lab note: COc1cc(-c2ncn(/C=C\c3nnco3)n2)cc(C(F)(F)F)c1 gave TGI of > 100 µM

Lab note: N#CC1C(N)=NNC12Nc1ccccc1S2 (stereo unspecified) gave TGI of 29.9 µM

Lab note: C[C@@]1(OC(=O)c2cc([N+](=O)[O-])cc([N+](=O)[O-])c2)C[C@@H]2CCCC[C@@H]21 gave TGI of > 100 µM

Lab note: COc1cc(C(=O)/C=C/c2c(C(F)(F)F)nc3ccccn23)cc(OC)c1OC gave TGI of > 100 µM

Lab note: CC(N)CC(=O)O (stereo unspecified) gave TGI of > 5000 µM

Lab note: Cc1ccc(/N=N/C(=NNC(=O)c2ccc(C)cc2)c2ccc(N(C)C)cc2)cc1 gave TGI of 45.1 µM

Lab note: N#Cc1c(NC(=O)c2ccccc2F)sc2c1CCCC2 gave TGI of > 25 µM

Lab note: O=c1[nH]c(=O)n(C2C(CO)OC(CO)C2O)cc1F (stereo unspecified) gave TGI of > 100 µM

Lab note: C[C@H]1C[C@H]2[C@@H]3CCC4=CC(=O)C=C[C@]4(C)C3=CC[C@]2(C)[C@@]1(O)C(=O)CO gave TGI of > 100 µM

* * *

# Test system: SF-295 CNS
# assay: NCI tumour cell line growth inhibition, 48 h; in the data active means GI50 below about 0.43 µM; inactive means the rest
// classify into yes = active, no = inactive

What classification did COC(=O)c1cc([N+](=O)[O-])cc([N+](=O)[O-])c1Cl end up with in this test?
no

What classification did CC(=O)N(O)c1ccc(/C=C/c2ccccc2)cc1 end up with in this test?
yes

What classification did COc1ccc(-c2c3c(N)c4c(nc3nc3c2c(C)nn3-c2ccccc2)CCCC4)cc1 end up with in this test?
no

What classification did Clc1ccc([I+]c2ccc(Cl)cc2Cl)c(Cl)c1 end up with in this test?
no

What classification did CSC1=Nc2c(c(C)c(-c3ccccc3)n2COC(CO)CO)C2=NC(=O)CN12 end up with in this test?
no

What classification did Cc1ccc(-n2c(-c3cc4c([nH]c5ccccc54)c(-c4cccc(O)c4)n3)n[nH]c2=S)cc1 end up with in this test?
no

What classification did c1ccc2c(CNCCN3CCNCC3)c3ccccc3c(CNCCN3CCNCC3)c2c1 end up with in this test?
no

* * *

# Test system: SF-295 CNS
# assay: NCI tumour cell line growth inhibition, 48 h
quantity name: TGI

Lab note: COc1ccccc1C1c2cc3c(cc2OC(N2CCCC2)C1C)OCO3 (stereo unspecified) gave TGI of 39.3 µM

Lab note: O=c1[nH]c(=S)[nH]c(-c2ccccc2)c1Cc1c(O)ccc2ccccc12 gave TGI of > 100 µM

Lab note: C/C(N=NS(=O)(=O)c1ccc(C)cc1)=C1\C=CC=CN1O gave TGI of > 100 µM

Lab note: CC1CCC2(C)C(CC=C(C=O)C2(O)C=O)C12CO2 (stereo unspecified) gave TGI of 13.9 µM

Lab note: c1ccc(-c2csc3ncn4cnnc4c23)cc1 gave TGI of > 100 µM

Lab note: O=C1/C(=C/c2cccs2)NC(=S)N1CN1CCCCC1 gave TGI of > 100 µM

* * *

# Tested on: SK-MEL-2 melanoma
# assay: NCI tumour cell line growth inhibition, 48 h
quantity name: TGI (µM)
Entry rule: numbers only, all in µM.

Lab note: CC1SC(c2ccc(Cl)cc2)N(CCc2cccs2)C1=O (stereo not given) gave TGI of 2.72

Lab note: O=C1C(Nc2cccc(O)c2)=C(Sc2ccccc2)C(=O)N1Cc1ccccc1 gave TGI of 26.7

* * *

# System: NCI-H23 lung
# assay: NCI tumour cell line growth inhibition, 48 h
I'd be grateful if you could share measured log10 TGI for these entries.
The figures below represent log10 of TGI, where TGI is stated in µM.

Sample CCOC(=O)/C=C\C(C#N)(C#N)N=Cc1ccsc1 , system: NCI-H23 lung. Its log10 TGI is 1.48

Sample CSC(=N)N1N=C2/C(=C/c3ccccc3)CCC[C@H]2[C@H]1c1ccccc1 , system: NCI-H23 lung. Its log10 TGI is 1.28

Sample CC1CCC2C(CN(CC3=C(C(F)(F)F)OC4OC5(C)CCC6C(C)CCC3C46OO5)CC3=C(C(F)(F)F)OC4OC5(C)CCC6C(C)CCC3C46OO5)=C(C(F)(F)F)OC3OC4(C)CCC1C32OO4 (stereo unspecified) , system: NCI-H23 lung. Its log10 TGI is 1.29

Sample C=C1C(=O)O[C@H]2[C@H]1CC/C(COC(=O)NCc1c[nH]c3ccc(F)cc13)=C\CC[C@@]1(C)O[C@@H]21 , system: NCI-H23 lung. Its log10 TGI is 0.59

Sample O=[N+]([O-])/C=C/c1ccc(Cl)cc1Cl , system: NCI-H23 lung. Its log10 TGI is 1.63

Sample CC(C)=CCC/C(C)=C/CCC1(C)C=Cc2c(c3ccccc3oc2=O)O1 (stereo unspecified) , system: NCI-H23 lung. Its log10 TGI is 1.46

Sample CCN(Cc1ccc(F)cc1)c1ccc(CO)c(C(F)(F)F)c1 , system: NCI-H23 lung. Its log10 TGI is 1.38

Sample CC1CCC2(C)C(CC=C(C=O)C2(O)C=O)C12CO2 (stereo unspecified) , system: NCI-H23 lung. Its log10 TGI is 0.77

Sample COC1=C(OC)C(=O)C(CCCCCCCCCCO)=C(C)C1=O , system: NCI-H23 lung. Its log10 TGI is 1.22
